B1: Chromodomain-helicase-DNA-binding protein 4, residues 365 to 417; numbered along this chain, Q14839 (parent)
chain: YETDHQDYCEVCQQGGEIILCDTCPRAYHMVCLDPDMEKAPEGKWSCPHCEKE

# Variants of: B1
# assay text: abundance fitness (aPCA) (normalised: wild type 0, dead -1); higher = more abundant; growth selection in yeast, the domain comes from the species named
# condition description: Homo sapiens

{"var": "C12S", "abundance fitness": -0.977}
{"var": "E17C", "abundance fitness": -0.308}
{"var": "Q14P", "abundance fitness": -0.826}
{"var": "P25H", "abundance fitness": -0.485}
{"var": "E42W", "abundance fitness": -0.49}
{"var": "D36Y", "abundance fitness": -0.657}
{"var": "V31N", "abundance fitness": 0.113}
{"var": "I19G", "abundance fitness": -0.137}
{"var": "P48Q", "abundance fitness": -0.133}
{"var": "L20Y", "abundance fitness": -0.179}
{"var": "E2W", "abundance fitness": 0.297}
